Each recorded value in this set is attributed to the NTF2 design screens of Basanta et al. (2020).

protease stability score values for the sequences below.
assay: protease stability score; higher = more stable; yeast display proteolysis, trypsin and chymotrypsin;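 note: log10 excess protease needed over predicted unfolded state with 0 meaning unfolded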
No unit in the answer, only the number.

| Construct Sequence | protease stability score |
| --- | --- |
| DEDLMRKFVERVKTGDPKDLVDQLDENAHQVVGETRVHGRSQFEKLAKKLEEQVDHIKVRSVKQENGRVDMDVVVNVNGQNNRYVLRVDVHNGKIKHMEVEFTDEEDEKAYRKALG | 0.095 |

Query (sequence): DEKALRSAEEWVRQLNENNEDTLMKLADPNAEFSIGDKTVHGREQLREWIKKTLDKMHVHVKDVKYTDSGDKAQIDIDRVNEHNGRPDEDNVEMTMHLDNGTIHSVDVRKKS ; field requested: protease stability score -0.303

Please give the measured protease stability score for this sequence: DEEQRKRMAEKFRNAIQRNDDDKIRELAPPDVSARYGDKEVHGREELLKYIDRLHKEADRIDVHDLHVKGETIILTLVVNINGHNHRYNFVAHIHDGRMHRMKVESR 1.21

----------
Readings of protease stability score for the listed sequences
assay: protease stability score; higher = more stable; yeast display proteolysis, trypsin and chymotrypsin;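 note: log10 excess protease needed over predicted unfolded state with 0 meaning unfolded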
Hey, just send me the number, nothing else.

Some solved entries appear below for comparison.
| Construct Sequence | protease stability score |
| --- | --- |
| DDETAEKLAREFIEALKEGNEEQVRRLVDENVRVEVGDTTFHGREEAAKFAKEFKQHADHVEIRDVSVHGDKVELNLVLNVNGRERDVVVIVRVENGKIKEFQYREN | 1.22 |
| DEEKVVKKHVEDLRENWRTNNEDELMKLAPPDVRVEVGDTEIHGHDQLRHWAQEMSDRIDHLEVDFRSFELENGRAEVNAKVVNNHNGKEDTNSVNITAEVQGDRMKIESMKVK | -0.492 |
| DEEEDQRVAVDALKVIWRGDSDEAQKLFDPNARFRVGDTVYHGRENVKTALRRFRERADHIRVDHIETQGEHAVAKATVHSNGRTRRLRVHATVHNGRAKEAEVRDS | 0.012 |
| DDHNARSALTIAFTAIRQGDEQKIRELMDKHVDVHVGDEVVHGRDQVATRLRKLKERVDHIQVKSMSVQGDTLDLNIIFRINGKDLEIKFDIRFRNGRVESMTVRVTDEKKYKDIHQ | 0.475 |

Reported protease stability score, sequence DHKDQSKMVKDLNRVMQHGDSKQMRSMVDENAEVQYGDNQVHGRDQIREMEKRIRRRVDKVKFDSVDVEGNKVRIQYVVNVNGQNIEQVLHVTFKNGKIKNQEYRVRDPRLEKQFKS : ____ 0.237

Given the sequence DEHAKRVLHEWLRAIQTGDPDKAMRLADKDARIRVGDKVISGREQLHKWVETLKKHIKVQIEDFNIEVHGEELELNIVATLNDNGEPQRSRWVVTVIIRNGEMKSLTQRDDS , what is its reported protease stability score? 0.009

Quick one: protease stability score for DEDAERLINQLLTAERRGNPDQVMQQVDKNATQTVGDKHIHGREDISREVEKRKRESRVDRKVESIDIRGNQARIEVHFEEDRNGKPVTSAQTMDITFHNGVVHERKVQDDS ? -0.743

----------
assay: protease stability score; higher = more stable; yeast display proteolysis, trypsin and chymotrypsin;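 note: log10 excess protease needed over predicted unfolded state with 0 meaning unfolded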
Experimental Endpoint: protease stability score
Write no unit; give the number alone.

| Construct Sequence | protease stability score |
| --- | --- |
| EEELNKVFEDLLEAEKTGDPDKIMRYFDPNARVSYGDKHIHGREEIRKDADRRKEHMRRDIHDYRIDARGDKVRFTADFTQTHNGQPRRHRMRMEVRVKGDKFRHFRIDEDG | 0.083 |

Which value of protease stability score has been reported for DRTEILKHMFDDLAQVRRDGDPEKLNELMDEDVKARYGDKEYHGREDVARNIHRLASQADHVHIQLDRMSVDNGKARLEADVRIEHNGKVDEVRVEIRADVDNGRVNLREMIYR in the records? 0.839

Fill in the blank: the reported protease stability score of DDDKRAEDWAKELIKVEQEGDEDQMERNADEDVRLKYGDTEIHGREQFREHVREQIERVDSVDVRIETFHMHNGRLDMVAEVEVQVDGRKHKDRFVFHAVDHNGRMLLKSASEG is ____. 0.522

----------
experiment: protease stability score; higher = more stable; yeast display proteolysis, trypsin and chymotrypsin;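 note: log10 excess protease needed over predicted unfolded state with 0 meaning unfolded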
Classify by measured protease stability score: criterion met if it is equal to or exceeds 0.09, criterion not met if it is smaller.

| Construct Sequence | Classification |
| --- | --- |
| DDEAVRQIQTMVRNQNTGDPDKVAEQMDPNVQVDYGDTNLQGREHVHHWLEELKRQARFELTSVKAESQGDNIHVQVDRKVNVNGQPRRDEMHFEVRVHNGRIRSVDIQFDPDKYRQIMS | criterion not met |
| DDDASRRFHEFVKLVRTNNPHKAMEMVDPNARFHIGDKEIHGREDVRRWVSRMLREARVTIDLKSLDVQGEKVKVTNLVRRRHNGEPQQMSVHAQVVWHNGKIKQETAHFKG | criterion met |

Determine whether measured protease stability score meets or exceeds 0.09 for DEHARDRATQMIEAIHNGDPDTLQELLDEDAHIQIGDKEIHGHDQASRELRRRREEQNVDVRVRDLKVTGERVKIDVEIRVSHNGQPTETKVTIDVEAHNGKIKDLRMRTSQ criterion met

Say whether ETEELHKMTELIDNMQRGNPQKFNEMVDPNAQFEVGDKTIRGREELSKELHRKRREMRRSLRSVKVRLSGNHFDIRVTFRETHNGQPDDRRQRIVIIVSNGRIKSVRVDEDG shows protease stability score of 0.09 or more. criterion not met

protease stability score >= 0.09 for DDTHTAEEWFHHLMNILKTNDPDRFANQFDKDARLHYGDTEVRGRENMIEFLRHMVKRIDHQSYTLLQIRVSNGRVEIKVRASMKYDGRVIDDNVEFEADLRGDKIKARQVNIG ? criterion met

----------
assay: protease stability score; higher = more stable; yeast display proteolysis, trypsin and chymotrypsin;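 note: log10 excess protease needed over predicted unfolded state with 0 meaning unfolded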
Experimental Endpoint: protease stability score

// worked examples, protease stability score included
| Construct Sequence | Data Value |
| --- | --- |
| DEKDVRRLSKYLRALQKNDPDEVRRMADPNAKAEVGDKRIHGRDEFSKHVETRRRQMRITIEHYEIKNQGDKVELNVVRRSEHNGKPRRNSVRATYVFDNGKIHSYSVKHVP | -0.133 |
| DEHAKKRLEEWLRNRQQGDDERLVQMADPNVRIEYGDKSFKGRDDVREWAQKESKSMDLQLKSVDLKVSGDKVDAKITFTQDENGKPDHATMNLVMKQDNGHIKVLRYEVTK | 0.084 |

Below: the item to evaluate.
State the recorded protease stability score for this entry: DEQERAERLMEEMVRVLHTGDEKRLQQLADPNARFTIGDTRVHGSDEFARLLREHADNADSMQFRVKSIEVEGNHINIKFSFSVDINGRTESYTANIRIVEKGDKMQFHTQDMK 0.402

----------
A collection of sequences and their measured protease stability score
test: protease stability score; higher = more stable; yeast display proteolysis, trypsin and chymotrypsin;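 note: log10 excess protease needed over predicted unfolded state with 0 meaning unfolded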
Please give the numeric answer without any surrounding text.

Observe how each entry below is paired with its result.
| Construct Sequence | Experimental Endpoint | Data Value |
| --- | --- | --- |
| DHEARKVVKRFWEAWETGDPEELNKQVDPNVHVQIGDTRLKGRDDVVRHLLEERHEMRVDLDSMDVKATNGQVNARATARADVNGQPVTFSMEFRFKVRNGKITHIDWQFSDEDHRKRKG | protease stability score | 0.81 |
| DEEDVKRAVEIFNTNNEEDLRRLVDKHAKITVGDKDVHGRKTAETLIHKLNSQADRIHLESVHKNGEQVVIKMVADVNGEKLDFQIVFVIKNGRLTSQRNVARNEDVERTLKNLYS | protease stability score | -0.119 |

Now for another entry.
Need protease stability score of DEDKVRKFQEYIEAYRRGDEQKLLKLMDPNVHVEIGDRRYHGHEDMEKILHKEIREIRVDVKIQSIEVRNGHITAHLVMSVNVNGHPVQMQFTVVIEMTNGKIKSIKYRVSEEQKRRFDS , thanks. 0.49

----------
assay: protease stability score; higher = more stable; yeast display proteolysis, trypsin and chymotrypsin;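 note: log10 excess protease needed over predicted unfolded state with 0 meaning unfolded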
Label MET when protease stability score >= 0.07; otherwise NOT MET.

Here are 3 sequences together with their reported answers.
| Construct Sequence | Classification |
| --- | --- |
| DDEVNHNFEEMLKARESGDPDRLKELFRDDVRMQVGDKQVTGREKLAEHLVENMKHSQRTIRITDIKAHNGRLEVRLKFTEEHNGRPKTAEADVKAVVHNGKFVSMHVDQKR | NOT MET |
| EEEKMEKLMKQLFDAVQKGDVDKFVKYLKEDVEFQFGDNRIKGVEEYKRTMEEMHKKGVQFEIKEAQNKDDTVKMRTVVHYGNQTFEVTAEATYDGGVLDKARVEVSEEAKEAFKKG | MET |
| DEEEAKRQMEEFAHGDPDKMVNNVDENADAVVGDRRFHGRKDIKEWAERMKKRIDTNKYEHVEQQGDKVDAIYNITVNGQELRFKLVIKIDNGRVEYVKVDVTDEENLKILQEIFS | MET |

Say whether DHDKQEFWNHLVEIFKSGNEDDWRKNFDPNAKWHIGDKRVHGREEAVEDFRRRREELRQNIESFTVDARGDKVTVHQVFVVEINGHPRRMSVNIRAKVHNGQIKEMDVRLSDEDKKKEKG shows protease stability score of 0.07 or more. MET

Form field: protease stability score at least 0.07? Entry: DEKEDKKVLERMAKLFVSGNKEEVQKMGKDDVEVVYGDETYHGPDAARKVIERVKKLGAKVEYKEVHVEGDTMTAKVEADIAGKRVRFHVTYKATGNRVDRMEVKYTKEAQEVIKHG MET

Check this sequence for protease stability score at or above 0.07: DEDLERKVKELMEVLKSGDESKWMEMVDPNARVQVGDTEIHGRENRREDLKRHKEDSRLDLKSYNVRVHNGQVEVHMSYTYEHNGQPRTSQATARFQLHNGRITEVNVNTTK NOT MET
